Measured TGI values are reported for all entries that follow.
- Tested on: A498 renal
- Procedure Details: NCI tumour cell line growth inhibition, 48 h

Worked cases, answers included:
Jot down TGI (A498 renal) of O=c1[nH]c2ccccc2c2nc3ccccc3n12 . > 100 µM

// fetch TGI for O=C1C(=O)N(c2ccc(Cl)cc2)C(=O)C(=O)C1c1nc2ccccc2o1 ; system: A498 renal > 100 µM

Answer briefly: TGI recorded on A498 renal for N=C(N)c1ccc(-c2ccc(/C=C/c3ccccc3)s2)cc1 34.1 µM

Please look at NCCSc1cc(O)c2c(c1N)C(=O)c1ccccc1C2=O and tell me its recorded TGI on A498 renal. > 100 µM

Give A498 renal TGI for the following molecule: CO[C@H]1C=CO[C@@]2(C)Oc3c(C)c(O)c4c(O)c(c(CN5CCN(C)CC5)c(O)c4c3C2=O)NC(=O)/C(C)=C\C=C[C@H](C)[C@H](O)C(C)[C@@H](O)C(C)[C@H](OC(C)=O)[C@@H]1C (stereo partly specified) > 100 µM

Further cases:
# assay system A498 renal: give TGI of COc1cc(C2C3=C(COC3=O)Oc3cc4c(cc32)OCO4)ccc1O (stereo unspecified) > 25.7 µM
